# ASSAY_NOTES: PK s.c. in healthy and adenine/high-phosphate-diet (uremic) rats
# Format: in vivo
# TEST_PARAMETERS: male, Sprague-Dawley, rat, serum, sc, 10 mg/kg, 10 mg/kg s.c., Uremic
MEASURED_QUANTITY: MRT (h)
Give just the number in h; leave the unit off.

**Query** // lookup MRT for COCCOCCO[C@@H]1[C@@H](OP(=O)(O)O)[C@H](OCCOCCOC)[C@@H](OP(=O)(O)O)[C@@H](OP(=O)(O)O)[C@H]1OP(=O)(O)O
**Result** 2.07

---

# ASSAY_NOTES: PK in healthy rats, i.v. bolus
# Type: in vivo, male Sprague-Dawley rats
# TEST_PARAMETERS: male, Sprague-Dawley, rat, in vivo, iv; 10 mg/kg i.v.; read-out: mean residence time (MRT) (converted)
MEASURED_QUANTITY: MRT (min)
Give just the number in min; leave the unit off.

**Query** // lookup MRT for COCCOCCO[C@@H]1[C@@H](OP(=O)(O)O)[C@H](OCCOCCOC)[C@@H](OP(=O)(O)O)[C@@H](OP(=O)(O)O)[C@H]1OP(=O)(O)O
**Result** 30

---

# ASSAY_NOTES: PK s.c. in rats with vitamin D and warfarin-induced VC
# Assay type: in vivo
# TEST_PARAMETERS: Sprague-Dawley, rat, plasma, sc, 50 mg/kg, 50 mg/kg s.c., Healthy
MEASURED_QUANTITY: CL/F
Please append the unit to your numeric answer.

**Query** // lookup CL/F for COCCOCCO[C@@H]1[C@@H](OP(=O)(O)O)[C@H](OCCOCCOC)[C@@H](OP(=O)(O)O)[C@@H](OP(=O)(O)O)[C@H]1OP(=O)(O)O
**Result** 11 mL/min/kg

---

# ASSAY_NOTES: PK in healthy rats, i.v. bolus
# Assay type: in vivo, male Sprague-Dawley rats
# TEST_PARAMETERS: Sprague-Dawley, rat, plasma, iv; 10 mg/kg i.v. bolus, healthy male rats
MEASURED_QUANTITY: half-life (min)
Give just the number in min; leave the unit off.

**Query** // lookup half-life for O=P(O)(O)O[C@H]1[C@H](OP(=O)(O)O)[C@@H](OP(=O)(O)O)[C@H](OP(=O)(O)O)[C@@H](OP(=O)(O)O)[C@H]1OP(=O)(O)O [IP6, myo-Inositol hexakisphosphate]
**Result** 8

---

# ASSAY_NOTES: PK i.v. bolus in healthy and adenine/high-phosphate-diet (uremic) rats
# Type: in vivo, male Sprague-Dawley rats
# TEST_PARAMETERS: male, Sprague-Dawley, rat, serum, iv, 10 mg/kg, 10 mg/kg i.v. bolus, Uremic
MEASURED_QUANTITY: clearance
Please append the unit to your numeric answer.

**Query** // lookup clearance for COCCOCCO[C@@H]1[C@@H](OP(=O)(O)O)[C@H](OCCOCCOC)[C@@H](OP(=O)(O)O)[C@@H](OP(=O)(O)O)[C@H]1OP(=O)(O)O
**Result** 5.8 mL/min/kg

---

# ASSAY_NOTES: VSMC viability (MTS) in CPP2-supplemented medium
# Format: cell-based, human
# TEST_PARAMETERS: human, primary human VSMCs, 1 µM with CPP2; replicates Fig. 3f; read-out: VSMC viability (MTS), % of medium control
# Text: Macrophage accumulation and inflammation coincide with the initial phase of calcification. To this end, VSMCs and THP-1-derived macrophages were exposed to CPP2-supplemented medium. CPP2 prepared from human serum as described previously[61] […] However, no increase in H2O2 nor TNF-α compared to control could be detected in either assay. […]
MEASURED_QUANTITY: viability at 48 h, 1 µM
Please append the unit to your numeric answer.

**Query** // lookup viability at 48 h, 1 µM for O=P(O)(O)O[C@H]1[C@H](OP(=O)(O)O)[C@@H](OP(=O)(O)O)[C@H](OP(=O)(O)O)[C@@H](OP(=O)(O)O)[C@H]1OP(=O)(O)O [IP6, myo-Inositol hexakisphosphate]
**Result** 100%

---

# ASSAY_NOTES: PK in healthy rats, s.c.
# Type: in vivo, male Sprague-Dawley rats
# TEST_PARAMETERS: male, Sprague-Dawley, rat, in vivo, sc; read-out: mean residence time (MRT) (converted)
MEASURED_QUANTITY: MRT (h)
Give just the number in h; leave the unit off.

**Query** // lookup MRT for COCCOCCO[C@@H]1[C@@H](OP(=O)(O)O)[C@H](OCCOCCOC)[C@@H](OP(=O)(O)O)[C@@H](OP(=O)(O)O)[C@H]1OP(=O)(O)O
**Result** 1.3

---

Some compounds, each annotated with its measured viability at 24 h, 3 µM.
# ASSAY_NOTES: Macrophage viability (MTS) with CPP2 and compounds
# Format: cell-based, human
# TEST_PARAMETERS: human, THP-1-derived macrophages, 3 µM + CPP2; replicates Fig. 3i; read-out: Macrophage viability (MTS), % of medium control

[[record]]
compound = "COCCOCCO[C@@H]1[C@@H](OP(=O)(O)O)[C@H](OCCOCCOC)[C@@H](OP(=O)(O)O)[C@@H](OP(=O)(O)O)[C@H]1OP(=O)(O)O"
measured_quantity = "viability at 24 h, 3 µM"
result = "100%"


**Query** // lookup viability at 24 h, 3 µM for O=P(O)(O)O[C@H]1[C@H](OP(=O)(O)O)[C@@H](OP(=O)(O)O)[C@H](OP(=O)(O)O)[C@@H](OP(=O)(O)O)[C@H]1OP(=O)(O)O [IP6, myo-Inositol hexakisphosphate]
**Result** 100%

---

# ASSAY_NOTES: VSMC viability (MTS), compounds only
# Assay type: cell-based, human
# TEST_PARAMETERS: human, 10 µM, compound only; read-out: VSMC viability (MTS), % of medium control
MEASURED_QUANTITY: viability at 10 µM (%)
Give just the number in %; leave the unit off.

**Query** // lookup viability at 10 µM for COCCOCCO[C@@H]1[C@@H](OP(=O)(O)O)[C@H](OCCOCCOC)[C@@H](OP(=O)(O)O)[C@@H](OP(=O)(O)O)[C@H]1OP(=O)(O)O
**Result** 106

---

# ASSAY_NOTES: PK s.c. in rats with vitamin D and warfarin-induced VC
# Format: in vivo
# TEST_PARAMETERS: Sprague-Dawley, rat, plasma, sc, 50 mg/kg, 50 mg/kg s.c., Healthy; read-out: MRT0-1440 (converted)
MEASURED_QUANTITY: MRT last (h)
Give just the number in h; leave the unit off.

**Query** // lookup MRT last for COCCOCCO[C@@H]1[C@@H](OP(=O)(O)O)[C@H](OCCOCCOC)[C@@H](OP(=O)(O)O)[C@@H](OP(=O)(O)O)[C@H]1OP(=O)(O)O
**Result** 2.27

---

# ASSAY_TARGET: CPP2
# ASSAY_NOTES: Competitive 18F-NaF binding assay on CPPs
# Design: species or system human
# TEST_PARAMETERS: CPP2 20 µg Ca/mL, 18F-NaF 1 nM, 1 h RT; read-out: IC50 (reduction of 18F binding to CPP)
MEASURED_QUANTITY: IC50 (nM)
Give just the number in nM; leave the unit off.

As a guide, the following entries are already answered.
[[record]]
molecule = "O=P(O)(O)O[C@H]1[C@H](OP(=O)(O)O)[C@@H](OP(=O)(O)O)[C@H](OP(=O)(O)O)[C@@H](OP(=O)(O)O)[C@H]1OP(=O)(O)O [IP6, myo-Inositol hexakisphosphate]"
unit_spec = "nM"
numeric_readout = 3960

[[record]]
molecule = "NCCCC(O)(P(=O)(O)O)P(=O)(O)O [Alendronate, alendronate]"
unit_spec = "nM"
numeric_readout = 900


**Query** // lookup IC50 for COCCOCCO[C@@H]1[C@@H](OP(=O)(O)O)[C@H](OCCOCCOC)[C@@H](OP(=O)(O)O)[C@@H](OP(=O)(O)O)[C@H]1OP(=O)(O)O [(OEG2)2-IP4]
**Result** 810

---

# ASSAY_NOTES: VSMC viability (MTS) in high-CaP medium
# Assay type: cell-based, human
# TEST_PARAMETERS: human, 100 µM in high-CaP medium; read-out: VSMC viability (MTS), % of medium control
MEASURED_QUANTITY: viability at 5 days, 100 µM (%)
Give just the number in %; leave the unit off.

**Query** // lookup viability at 5 days, 100 µM for COCCOCCO[C@@H]1[C@@H](OP(=O)(O)O)[C@H](OCCOCCOC)[C@@H](OP(=O)(O)O)[C@@H](OP(=O)(O)O)[C@H]1OP(=O)(O)O
**Result** 83.5

---

# ASSAY_NOTES: PK in healthy rats, s.c.
# Type: in vivo, male Sprague-Dawley rats
# TEST_PARAMETERS: male, Sprague-Dawley, rat, plasma, sc; 100 mg/kg s.c.
MEASURED_QUANTITY: AUC(0-inf) (µM·h)
Give just the number in µM·h; leave the unit off.

**Query** // lookup AUC(0-inf) for O=P(O)(O)O[C@H]1[C@H](OP(=O)(O)O)[C@@H](OP(=O)(O)O)[C@H](OP(=O)(O)O)[C@@H](OP(=O)(O)O)[C@H]1OP(=O)(O)O [IP6, myo-Inositol hexakisphosphate]
**Result** 22.4
